# measuredTarget: Ubiquitin carboxyl-terminal hydrolase 7 (Homo sapiens, UniProt Q93009)
# Sequence (Q93009 whole entry, the tested form may be a part): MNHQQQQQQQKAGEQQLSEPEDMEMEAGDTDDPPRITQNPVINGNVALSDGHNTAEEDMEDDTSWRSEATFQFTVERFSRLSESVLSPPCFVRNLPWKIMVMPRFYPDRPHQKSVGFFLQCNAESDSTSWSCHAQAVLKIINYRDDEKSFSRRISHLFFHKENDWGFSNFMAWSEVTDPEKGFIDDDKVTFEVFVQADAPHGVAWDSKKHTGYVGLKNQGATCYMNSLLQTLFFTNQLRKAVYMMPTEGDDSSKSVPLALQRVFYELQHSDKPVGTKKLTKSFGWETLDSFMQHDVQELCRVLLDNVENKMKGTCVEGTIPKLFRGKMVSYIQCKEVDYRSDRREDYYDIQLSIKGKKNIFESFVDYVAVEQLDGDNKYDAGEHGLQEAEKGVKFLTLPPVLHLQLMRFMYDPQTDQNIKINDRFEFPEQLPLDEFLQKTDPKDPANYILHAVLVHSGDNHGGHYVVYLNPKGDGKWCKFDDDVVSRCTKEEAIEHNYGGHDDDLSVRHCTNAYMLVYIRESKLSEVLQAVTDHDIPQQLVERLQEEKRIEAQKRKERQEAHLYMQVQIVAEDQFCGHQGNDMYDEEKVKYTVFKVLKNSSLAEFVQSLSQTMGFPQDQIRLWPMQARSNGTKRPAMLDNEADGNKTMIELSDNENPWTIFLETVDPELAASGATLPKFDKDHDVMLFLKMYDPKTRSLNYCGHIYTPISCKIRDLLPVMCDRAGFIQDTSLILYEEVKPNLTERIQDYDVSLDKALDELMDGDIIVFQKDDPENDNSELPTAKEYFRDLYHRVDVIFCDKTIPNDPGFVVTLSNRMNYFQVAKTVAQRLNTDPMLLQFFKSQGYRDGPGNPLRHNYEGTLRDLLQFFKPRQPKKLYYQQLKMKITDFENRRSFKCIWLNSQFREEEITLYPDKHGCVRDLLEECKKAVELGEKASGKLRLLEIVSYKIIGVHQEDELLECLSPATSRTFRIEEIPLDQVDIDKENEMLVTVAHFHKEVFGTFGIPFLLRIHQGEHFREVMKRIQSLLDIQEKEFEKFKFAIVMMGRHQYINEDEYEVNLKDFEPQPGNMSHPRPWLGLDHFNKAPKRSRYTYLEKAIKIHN
# protocolDetails: Inhibition of N-terminal His-tagged USP7 catalytic domain (208 to 554 residues) (unknown origin) by TR-FRET assay
property: IC50 (nM)
Express the result in nM but write the number alone.

In: Provide Ubiquitin carboxyl-terminal hydrolase 7 (Homo sapiens, UniProt Q93009) IC50 reading for CCc1c(-c2ccc(C(=O)NC)nc2)cnc(N)c1-c1ccc(O)cc1 .
Out: 610

====

# measuredTarget: UniProtKB Q93009
# protocolDetails: Inhibition of USP7 catalytic domain human USP7 (208 to 560 residues) (unknown origin) extracted from Escherichia coli
property: pIC50
Please note pIC50 is a logarithmic value: minus log10 of concentration in mol/L. Answer with that number alone.

In: Return the recorded pIC50 value; entry: O=C(C[C@@H](C(F)F)n1ccc(F)n1)N1CCC(O)(Cn2cnc3c(cnn3-c3ccc(F)cc3)c2=O)CC1
Out: 4.28
